study_system: NLRP3 (Homo sapiens, UniProt Q96P20)
Construct: Seed THP-1 cells (25,000 cells/well) containing 1.0 μg/ml LPS in 40 μl of RPMI medium
Sequence (Q96P20 whole entry): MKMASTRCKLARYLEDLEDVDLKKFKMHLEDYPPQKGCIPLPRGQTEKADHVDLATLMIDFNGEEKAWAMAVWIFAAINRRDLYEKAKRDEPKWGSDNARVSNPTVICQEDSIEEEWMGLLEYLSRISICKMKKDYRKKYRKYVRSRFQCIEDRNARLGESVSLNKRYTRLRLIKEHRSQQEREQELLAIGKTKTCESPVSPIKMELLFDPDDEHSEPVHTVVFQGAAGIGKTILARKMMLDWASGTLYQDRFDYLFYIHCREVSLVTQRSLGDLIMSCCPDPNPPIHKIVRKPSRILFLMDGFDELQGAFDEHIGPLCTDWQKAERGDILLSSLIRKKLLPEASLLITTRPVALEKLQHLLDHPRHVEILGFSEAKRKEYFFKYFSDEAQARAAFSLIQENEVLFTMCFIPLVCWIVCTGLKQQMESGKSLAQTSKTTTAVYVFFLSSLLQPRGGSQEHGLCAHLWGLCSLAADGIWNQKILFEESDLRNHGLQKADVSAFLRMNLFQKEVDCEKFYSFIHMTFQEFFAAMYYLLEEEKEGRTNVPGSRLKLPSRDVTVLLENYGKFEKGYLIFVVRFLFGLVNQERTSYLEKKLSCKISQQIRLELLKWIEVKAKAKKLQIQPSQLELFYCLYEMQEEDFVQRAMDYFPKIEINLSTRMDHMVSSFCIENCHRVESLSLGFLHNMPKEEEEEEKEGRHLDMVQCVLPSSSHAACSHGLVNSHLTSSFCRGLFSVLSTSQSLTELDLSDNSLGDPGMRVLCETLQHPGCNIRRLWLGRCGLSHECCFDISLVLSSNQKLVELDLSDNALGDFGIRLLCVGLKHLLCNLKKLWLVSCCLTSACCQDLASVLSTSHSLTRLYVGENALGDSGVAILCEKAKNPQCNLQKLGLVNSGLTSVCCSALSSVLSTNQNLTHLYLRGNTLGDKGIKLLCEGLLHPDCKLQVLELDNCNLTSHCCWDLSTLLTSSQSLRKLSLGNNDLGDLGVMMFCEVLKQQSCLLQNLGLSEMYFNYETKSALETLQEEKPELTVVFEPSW
assay_overview: THP-1 cells pyroptosis assay
condition_notes: 1.0 μg/ml LPS, compound 3 hrs, nigericin 5 μM 1 hr, resazurin readout
pIC50: −log10 of the molar value.
attribute_measured: pIC50

These recorded examples may help you get a feel for the data.
CN(C)C(=O)c1cc(S(=O)(=O)NC(=O)Cc2c3c(cc4c2CCC4)CCC3)nn1C
5.00 to 5.30
CN(C)C(=O)c1cc(S(=O)(=O)NC(=O)Cc2c(-c3ccnc(C#N)c3)ccc3c2CCC3)nn1C
5.30 to 6.00

Alright, here's another compound for you.
Prompt: Item "CC(C)c1cc(F)cc(-c2ccncc2)c1CC(=O)NS(=O)(=O)c1cc(CN(C)C)n(C)n1" has what recorded pIC50?
Completion: 5.30 to 6.00

Attribution: patent US20200399243A1
